Collected literature values of pKi measured for Coagulation factor XI (Homo sapiens, UniProt P03951).
pKi: −log10 of the molar value.
pKi vs 8: at or above is YES, below is NO.

compound | target of assay | cat
COC(=O)Nc1ccc2c(c1)NC(=O)CCCC[C@H](c1ccc(-c3cc(Cl)ccc3C#N)c[n+]1[O-])c1cccc-2c1 (single isomer, unassigned) | Coagulation factor XI (Homo sapiens, UniProt P03951) | YES
COC(=O)Nc1ccc2c(c1)NC(=O)CCCC[C@H](NC(=O)c1cc(-c3cccc(Cl)c3)no1)c1nc-2c[nH]1 | Coagulation factor XI (Homo sapiens, UniProt P03951) | NO
COC(=O)Nc1ccc2c(c1)NC(=O)CCCC[C@@H](C(=O)N1CC[C@@]3(C1)OC(=O)Nc1ccc(Cl)cc13)c1nc-2c[nH]1 (single isomer, unassigned) | Coagulation factor XI (Homo sapiens, UniProt P03951) | YES
COC(=O)Nc1ccc(-c2cc([C@H](Cc3cc([S+](C)[O-])n(C)n3)NC(=O)/C=C/c3cc(Cl)ccc3-n3cnnn3)n[nH]c2=O)cc1 (stereo partly drawn) | Coagulation factor XI (Homo sapiens, UniProt P03951) | NO
N=C(N)c1ccc(CNC(=O)[C@H](CCc2ccccc2)NC(=O)[C@@H](CO)NS(=O)(=O)Cc2ccccc2)cc1 | Coagulation factor XI (Homo sapiens, UniProt P03951) | NO
CCOC(=O)C1CCCC[C@H](NC(=O)/C=C/c2cc(Cl)ccc2-n2cnnn2)c2cc(ccn2)-c2ccc(NC(=O)OC)cc2N1 (stereo partly drawn) | Coagulation factor XI (Homo sapiens, UniProt P03951) | NO
O=C(O)c1ccc(NC(=O)[C@H](Cc2ccc(NC(=O)C3CC3)cc2)N2CCC(c3cc(Cl)ccc3-n3cc(Cl)nn3)=CC2=O)cc1 | Coagulation factor XI (Homo sapiens, UniProt P03951) | YES
COC(=O)Nc1ccc2c(c1)NC(=O)CCCCC(c1ccc(-c3cc(Cl)ccc3-n3cnnn3)c[n+]1[O-])c1cc(F)cc-2c1 (stereo not drawn) | Coagulation factor XI (Homo sapiens, UniProt P03951) | YES
O=C([C@H](Cc1ccccc1)n1cnc(-c2cc(Cl)ccc2-n2cc(Cl)nn2)cc1=O)N1CCC(CO)CC1 | Coagulation factor XI (Homo sapiens, UniProt P03951) | NO
COC(=O)Nc1ccc2c(c1)NC(=O)CCCCC(C(=O)N1CC[C@@]3(C1)OC(=O)Nc1ccc(Cl)c(F)c13)c1nc-2c(Cl)[nH]1 (mixture of isomers) | Coagulation factor XI (Homo sapiens, UniProt P03951) | YES
CC(=O)c1ccc(Cl)c(F)c1C1=CC(=O)N([C@H]2CCC[C@@H](C)C(=O)Nc3cnn(C)c3-c3ccnc2c3)CC1 | Coagulation factor XI (Homo sapiens, UniProt P03951) | YES

---

pKi: −log10 of the molar value.
Collected literature values of pKi measured for Coagulation factor XI (Homo sapiens).
measurement type: pKi

chem smiles | target of assay | result qualifier | experimental result
C[C@@H]1CCC[C@H](N2CCC(c3c(Br)ccc(Cl)c3F)=CC2=O)c2cc(ccn2)-c2c(cnn2C)NC1=O | Coagulation factor XI (Homo sapiens) | = | 8.77
C[C@@H](OCc1ccccc1)[C@H](NC(=O)[C@@H](CO)NS(=O)(=O)Cc1ccccc1)C(=O)NCc1ccc(C(=N)N)cc1 | Coagulation factor XI (Homo sapiens) | = | 6.48
O=C(O)c1ccc2[nH]c([C@H](Cc3ccc(F)cc3)n3ccc(-c4cc(Cl)ccc4-n4cnnn4)cc3=O)nc2c1 | Coagulation factor XI (Homo sapiens) | > | 8.30
